Assay Info: Drug repurposing screens with cells derived from glioblastoma tumor samples (AID 1345199); also: potency is read from the fitted curve at half-maximal effect; nearly all actives have a fitted effect of over 40% in size
Condition Parameters: GBM patient neurospheres viability, ATP luminescence, 48 h; tumour line A
Inconclusive results are not listed. Calls of active or inactive are those of the source. Calls follow the shape of the dose curve; as a rule, active = well fitted inhibition curve with a large enough effect; inconclusive = small, poorly fitted or top-dose-only effect; inactive = flat fitted curve, though single readings scatter.

{"columns": ["Compound", "Potency"],
 "data": [
  ["CCOC(=O)Oc1c(OC)cc(C(=O)O[C@@H]2C[C@@H]3CN4CCc5c([nH]c6cc(OC)ccc56)[C@H]4C[C@@H]3[C@H](C(=O)OC)[C@H]2OC)cc1OC", "5.62 µM (active)"],
  ["CN(C)CCC(O)(c1ccccc1)c1ccccc1Cl (configuration not stated)", "11.2 µM (active)"],
  ["N[C@@H](Cc1cc(I)c(Oc2ccc(O)c(I)c2)c(I)c1)C(=O)O", "11.2 µM (active)"],
  ["CN(C)CCCSc1ccccc1NC(=O)/C=C/c1ccccc1", "10 µM (active)"],
  ["COc1ccccc1N1CCN(CCCC(=O)c2ccc(F)cc2)CC1", "10 µM (active)"],
  ["CC(C)=CCC/C(C)=C/CC/C(C)=C/CC/C(C)=C/CC1=C(C)C(=O)c2ccccc2C1=O", "10 µM (active)"],
  ["C=C[C@]1(C)C[C@@H](OC(=O)CSCCN(CC)CC)[C@]2(C)[C@H](C)CC[C@]3(CCC(=O)[C@H]32)[C@@H](C)[C@@H]1O", "7.94 µM (active)"]
]}
